These measurements were taken from patent US20240287154A1.

# system-tested: human MC3R (human, UniProt P41968 1-323)
# Sequence (P41968 whole entry): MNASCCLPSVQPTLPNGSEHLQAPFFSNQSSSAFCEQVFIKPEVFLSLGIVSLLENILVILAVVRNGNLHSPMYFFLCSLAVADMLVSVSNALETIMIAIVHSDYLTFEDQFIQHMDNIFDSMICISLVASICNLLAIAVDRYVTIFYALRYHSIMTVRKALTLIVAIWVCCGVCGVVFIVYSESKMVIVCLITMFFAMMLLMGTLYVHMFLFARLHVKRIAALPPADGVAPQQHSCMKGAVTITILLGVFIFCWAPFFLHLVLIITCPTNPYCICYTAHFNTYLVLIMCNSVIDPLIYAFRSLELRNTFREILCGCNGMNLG
# protocol-notes: cell-based or functional assay
Non-standard residues stand in square brackets, D forms with d. Phe(4-I) = N[C@@H](Cc1ccc(I)cc1)C(=O)O; Nle = CCCC[C@H](N)C(=O)O
Catalogue of binders with associated MC3R cAMP (EC50)

Q: Look up and state reported MC3R cAMP (EC50) for H-YV[Nle][dA]HFR[dW]DRF-NH2 (SMILES CCCC[C@H](NC(=O)[C@@H](NC(=O)[C@@H](N)Cc1ccc(O)cc1)C(C)C)C(=O)N[C@H](C)C(=O)N[C@@H](Cc1c[nH]cn1)C(=O)N[C@@H](Cc1ccccc1)C(=O)N[C@@H](CCCNC(=N)N)C(=O)N[C@H](Cc1c[nH]c2ccccc12)C(=O)N[C@@H](CC(=O)O)C(=O)N[C@@H](CCCNC(=N)N)C(=O)N[C@@H](Cc1ccccc1)C(N)=O) [CTX-1119]
Ans: 1.9 nM

Q: Look up and state reported MC3R cAMP (EC50) for YVXAHFRWDRFG (Nle at 3; D-Ala at 4; D-Trp at 8; D-Arg at 10) [CTX-1126]
Ans: 3 nM

---
Q: Look up and state reported MC3R cAMP (EC50) for Ac-[Nle][dA]H[Phe(4-I)][dR]WDRFG-OH (SMILES CCCC[C@H](NC(C)=O)C(=O)N[C@H](C)C(=O)N[C@@H](Cc1c[nH]cn1)C(=O)N[C@@H](Cc1ccc(I)cc1)C(=O)N[C@H](CCCNC(=N)N)C(=O)N[C@@H](Cc1c[nH]c2ccccc12)C(=O)N[C@@H](CC(=O)O)C(=O)N[C@@H](CCCNC(=N)N)C(=O)N[C@@H](Cc1ccccc1)C(=O)NCC(=O)O) [CTX-1501]
Ans: 2800 nM
